test-method-notes: compounds raising PGC1a acetylation signal, primary screen, PGC1a modulator project, cell-based, U2OS, AlphaScreen, signal-increasing mode (AID 651723)
measurement-context: overnight, at 15.6 µM, stronger effect = higher value
About 740 (0.21%) of roughly 350,000 compounds were called active. This excerpt belongs to a sample that is enriched for actives.
Assign Fulfilled to entries whose activation meets or exceeds -50%; assign Not fulfilled to the rest.

compound	class-label
N#Cc1c(N)nc2c3c(sc(=N)c2c1N)NC(=O)CC3c1ccccc1Cl (stereo not given)	Fulfilled

Hi, just wondering whether CCOC(=O)c1ccc2[nH]c(C)c(CN3CCN(C)CC3)c(=O)c2c1 shows activation of -50% or higher.
Not fulfilled

Hi, just wondering whether CCOC(=O)c1c(-c2ccc(C)cc2C)csc1NC(=O)CSc1nnnn1C shows activation of -50% or higher.
Fulfilled

Hi, just wondering whether Cc1cc(C)n(-c2nc(O)cc(=O)[nH]2)n1 shows activation of -50% or higher.
Fulfilled

---

test-method-notes: compounds raising PGC1a acetylation signal, primary screen, PGC1a modulator project, cell-based, U2OS, AlphaScreen, signal-increasing mode (AID 651723)
measurement-context: overnight, at 15.6 µM, stronger effect = higher value
The whole screen tested about 350,000 compounds, of which about 740 (0.21%) were called active. Many of the other results were omitted from the sample, so actives are more common in it than they were.
Assign Met to entries whose activation meets or exceeds 70%; assign Not met to the rest.

Example cases with answers are listed next.
compound	class-label
CCc1ccc(NC(=O)CSc2nnc(-c3cnccn3)n2Cc2ccco2)cc1	Not met
CC(C)NC(=O)Nc1ccc2c(c1)C(=O)N([C@@H](C)CO)C[C@@H](C)[C@H](CN(C)S(=O)(=O)c1ccccc1)OCCCC[C@@H](C)O2	Not met
C[C@H]1CN([C@@H](C)CO)C(=O)c2cc(C#Cc3ccc(F)cc3)cnc2O[C@@H]1CN(C)C(=O)Nc1ccc(F)cc1	Not met
O=[N+]([O-])c1c(NCCO)cc(Sc2nc3ccccc3s2)c2nonc12	Not met
N#Cc1cccc(NC(=O)COC(=O)c2ccccc2C(=O)c2ccc(Cl)c([N+](=O)[O-])c2)c1	Not met

# evaluate next
Hi, just wondering whether COc1ccc(Oc2c(Cl)cnn(-c3ccccc3)c2=O)cc1 shows activation of 70% or higher.
Met

---

test-method-notes: compounds raising PGC1a acetylation signal, primary screen, PGC1a modulator project, cell-based, U2OS, AlphaScreen, signal-increasing mode (AID 651723)
measurement-context: overnight, at 15.6 µM
Among all 350,000 compounds or so, about 740 (0.21%) were called active.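 Rule for the calls: active = every replicate reaching activation of at least 50%, whatever the mean replicate activation; inconclusive = replicates that disagree or another doubt; inactive = the rest.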 The full list was thinned out, with actives kept by preference.
Assign a class; possible classes are Y = active, N = inactive

molecule	class-label
Clc1ccc(-c2nnc(-c3ccccc3)nc2N2CCSCC2)cc1	Y

Can you look up the reported call for O=C(NCc1ccccc1)C(c1ccccc1)N(C(=O)c1csnn1)c1ccc(F)cc1 (centres undefined) for me?
Y

---

test-method-notes: compounds raising PGC1a acetylation signal, primary screen, PGC1a modulator project, cell-based, U2OS, AlphaScreen, signal-increasing mode (AID 651723)
measurement-context: overnight, at 15.6 µM, stronger effect = higher value
Out of some 350,000 compounds screened, about 740 (0.21%) were called active. The full list was thinned out, with actives kept by preference.
assay-endpoint: activation (%)
Express the result in % but write the number alone.

compound	assay-endpoint	unit-descriptor	result-number
COc1cc(NC(=O)c2[nH]cnc2C(N)=O)cc(C(=O)Nc2cccc(C(F)(F)F)c2)c1	activation	%	-62.8

Item: O=C(Nc1ccc2c(c1)OCO2)N[C@H]1CC[C@H](CCNC(=O)C2CCC2)O[C@@H]1CO | activation: -46.2

Item: NC(=O)Cc1ccc2c(c1)[nH]c1ccccc12 | activation: 116

Item: CN1OC[C@@H]2CN(S(=O)(=O)c3cccc4ccccc34)[C@H](c3ccc(N4CCCCC4)cc3)C[C@@H]21 | activation: -47.9

Item: CC(C)Cc1nn2c(=O)cc(O)nc2s1 | activation: -40.3

Item: COCCNC(=O)CSc1nc2c(n1-c1ccccc1)CCCC2 | activation: -43.7

Item: S=C1NC(c2ccccc2)=NCN1c1ccc(Br)cc1 | activation: -80.9

Item: CN1CCc2c(sc3c2c(NCc2ccco2)nc2nnnn23)C1 | activation: -44.7

Item: Cc1ccc(-c2c[n+](CC(=O)Nc3ccccc3)c3n2CCC3)cc1 | activation: -43.3

Item: COCC(=O)Nc1ccc2c(c1)OC[C@@H](C)N(CCc1ccccc1)C[C@H](C)[C@@H](OC)CN(C)C2=O | activation: -52.2

Item: Cc1nc(SCC(=O)NC2CCCC2)[nH]c(=O)c1C | activation: -42.3

Item: Cc1oc2c(c1C(=O)N1CCOCC1)C(=O)c1ccccc1C2=O | activation: -42.9

Recorded values, source PubChem BioAssay AID651723.
